Target: neuropilin-1 (NRP1) on HEK293 cells overexpressing NRP1 (UniProt O14786)
Assay: flow cytometry, HEK293-NRP1 vs HEK293
reported property: 100 nM FACS (MFI Ratio)
# answer = number (no unit)

Below, 2 binders whose answers are already recorded.
NRP1-70 (VHH) VHH: EVQLVESGGGLVQPGGSLRLSCAASGDTFSRYTMGWFRQAPGKEREFVATIWWTFDAPYYADSVKGRFTISADNSKNTAYLQMNSLKPEDTAVYYCAARSPMSPTWDWGQGTLVTVSS :: 1.9
NRP1-121 (antibody, IgG2, V domains shown) VH: QVQLVQSGAEVKKPGSSVKVSCKASGGTFSNYAISWVRQAPGQGLEWMGGIIPINYAQKFQGRVTITADESTSTAYMELSSLRSEDTAVYYCVRRVVGATPFDYWGQGTLVTVSS VL: DIQMTQSPSSLSASVGDRVTITCRASQIIRRYLNWYQQKPGKAPKLLIYPASSLQSGVPSRFSGSGSGTDFTLTISSLQPEDFATYYCQQAYSTPMFGQGTKVEIK :: 1.5

API: the following record is the query input.
What measured 100 nM FACS (MFI Ratio) goes with NRP1-245 (antibody, IgG2, V domains shown) VH: EVQLLESGGGLVQPGGSLRLSCAASGLTFSRYAMSWVRQAPGKGLEWVSTISGRGGSTNYADSVKGRFTISRDNSKNTLYLQMNSLRAEDTAVYYCAKDSARFISPPRGIRIRGVVLSGFDSWGQGTLVTVSS VL: DIQMTQSPSSLSASVGDRVTITCRASQSISTSLNWYQQKPGKAPKLLIYATSSLQSGVPSRFSGSGSGTDFTLTISSLQPEDFATYYCQQAYSTPLTFGGGTKVEIK ? 2
